The measured values listed here are drawn from ChEMBL document CHEMBL5131533.

- system-name: UniProtKB Q02127
- Sequence (Q02127 whole entry): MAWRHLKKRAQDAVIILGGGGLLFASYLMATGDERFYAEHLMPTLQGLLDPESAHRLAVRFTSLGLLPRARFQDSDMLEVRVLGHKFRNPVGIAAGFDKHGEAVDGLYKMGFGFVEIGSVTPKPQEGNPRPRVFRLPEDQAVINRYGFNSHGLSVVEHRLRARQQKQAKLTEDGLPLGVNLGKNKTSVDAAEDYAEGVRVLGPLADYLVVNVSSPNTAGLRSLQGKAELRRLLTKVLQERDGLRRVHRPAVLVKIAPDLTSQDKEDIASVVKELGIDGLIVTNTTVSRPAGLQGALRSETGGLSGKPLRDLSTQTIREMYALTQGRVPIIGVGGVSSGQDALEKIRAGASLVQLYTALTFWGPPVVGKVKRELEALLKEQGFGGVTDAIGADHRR
parameter: IC50 (nM)

Sample answers from the record:
CCn1c(CO)nn(-c2cc(O[C@@H](C)C(F)(F)F)c3c(Nc4c(F)cccc4Cl)nn(C)c3c2F)c1=O | 2
CCn1c(CO)nn(-c2cc(O[C@@H](C)C(F)(F)F)c3c(Nc4c(F)cccc4Cl)noc3c2F)c1=O | 2

[I] CCn1c(CO)nn(-c2cc(O[C@@H](C)C(F)(F)F)c3c(Nc4c(C)ccnc4Cl)nn(C)c3c2F)c1=O
[II] CCn1c(CO)nn(-c2cc(OC(C)C(F)(F)F)c3c(Nc4c(F)cccc4Cl)nn(C)c3c2)c1=O (stereo not given)
[III] Cc1ccnc(Cl)c1Nc1nn(C)c2c(F)c(-c3cn(C)c(C(C)(C)O)n3)cc(O[C@@H](C)C(F)(F)F)c12
Kindly order the items shown according to IC50, from the highest value down. Your answer should be the labels, listed in the requested order. II, I, III
(II: 8 nM, I: 2 nM, III: 1 nM)
